Entries and their protein stability index values follow.
# System: Saccharomyces cerevisiae
# ASSAY METHOD TEXT: protein stability index of tFT-peptide fusion (C-terminal peptide) (PSI (0-1 scale)); higher = more stable (slower turnover)
# STATED CONDITIONS: genetic background: das1 deletion; temperature: 30 C
VALUE KIND: protein stability index

[[record]]
residue_sequence = "FELVQPKGRRKH [TSR2 C-terminal 12 aa]"
observed_result = 0.711

[[record]]
residue_sequence = "QAIEDKLNKMSR [BIL1 C-terminal 12 aa]"
observed_result = 0.686

[[record]]
residue_sequence = "GTFPRNERYYHK [PHA2 C-terminal 12 aa]"
observed_result = 0.71

[[record]]
residue_sequence = "QSPLMDMLAPQL [TOM6 C-terminal 12 aa]"
observed_result = 0.706

[[record]]
residue_sequence = "HELESINSGGAW [YMR31 C-terminal 12 aa]"
observed_result = 0.702

[[record]]
residue_sequence = "LADSKHCSGLHK [ASF2 C-terminal 12 aa]"
observed_result = 0.684


----------
# Tested on: Saccharomyces cerevisiae
# ASSAY METHOD TEXT: protein stability index of tFT-peptide fusion (C-terminal peptide) (PSI (0-1 scale)); higher = more stable (slower turnover)
# STATED CONDITIONS: genetic background: das1 deletion; temperature: 30 C
Entries and their protein stability index values follow.
VALUE KIND: protein stability index

[[record]]
residue_sequence = "AFMMICEKLITL [SEC59 C-terminal 12 aa]"
test_target = "Saccharomyces cerevisiae"
value_kind = "protein stability index"
observed_result = 0.706

[[record]]
residue_sequence = "GDPIDLKEKKLN [RER2 C-terminal 12 aa]"
test_target = "Saccharomyces cerevisiae"
value_kind = "protein stability index"
observed_result = 0.705

[[record]]
residue_sequence = "LPEPNFFRKAAF [AXL1 C-terminal 12 aa]"
test_target = "Saccharomyces cerevisiae"
value_kind = "protein stability index"
observed_result = 0.72

[[record]]
residue_sequence = "WEAYLRRCGQQN [URA3 C-terminal 12 aa]"
test_target = "Saccharomyces cerevisiae"
value_kind = "protein stability index"
observed_result = 0.697

[[record]]
residue_sequence = "FILELKNICKCT [MOH1 C-terminal 12 aa]"
test_target = "Saccharomyces cerevisiae"
value_kind = "protein stability index"
observed_result = 0.703


----------
# Test system: Saccharomyces cerevisiae
# ASSAY METHOD TEXT: protein stability index of tFT-peptide fusion (C-terminal peptide) (PSI (0-1 scale)); higher = more stable (slower turnover)
# STATED CONDITIONS: genetic background: wild type; temperature: 37 C
Where protein stability index equals or exceeds 0.4, the correct label is 1; where it does not, the label is -1.

[[record]]
residue_sequence = "GSLHWVMVFAVP"
answer_label = 1

[[record]]
residue_sequence = "LGVCLFFVRCWS"
answer_label = -1

[[record]]
residue_sequence = "IWVVIISDSRVG"
answer_label = 1

[[record]]
residue_sequence = "LSVSEILAVKCG"
answer_label = 1

[[record]]
residue_sequence = "RRIKIRKQEYIS"
answer_label = 1

[[record]]
residue_sequence = "MACLRLTVYVMG"
answer_label = -1

[[record]]
residue_sequence = "VFGFSLLTLLVL"
answer_label = 1

[[record]]
residue_sequence = "TRVVSPNVILMC"
answer_label = 1

[[record]]
residue_sequence = "FILLHLLGTIRS"
answer_label = 1

[[record]]
residue_sequence = "YSGRYRTLVRCW"
answer_label = -1

[[record]]
residue_sequence = "AWVEVYVISIGV"
answer_label = -1

[[record]]
residue_sequence = "NHKTIRIQNKSI"
answer_label = 1

[[record]]
residue_sequence = "GFNIFFFFFFFV"
answer_label = -1

[[record]]
residue_sequence = "FWWVGCGWCRWG"
answer_label = 1

[[record]]
residue_sequence = "IFIVLDFRCVSS"
answer_label = -1

[[record]]
residue_sequence = "VCNYRKLIWKHH"
answer_label = -1

[[record]]
residue_sequence = "GPPPPPSLLLLC"
answer_label = -1

[[record]]
residue_sequence = "TPRQYVVSLSLC"
answer_label = -1

[[record]]
residue_sequence = "FVRVFLRLGVVS"
answer_label = -1

[[record]]
residue_sequence = "YCLSCLAKASLM"
answer_label = -1

[[record]]
residue_sequence = "MFLHLGLFIMSH"
answer_label = 1

[[record]]
residue_sequence = "GFAFFIGLSFAF"
answer_label = 1

[[record]]
residue_sequence = "VPQQWFAETGRC"
answer_label = 1

[[record]]
residue_sequence = "ICTHPCLRLRLN"
answer_label = -1

[[record]]
residue_sequence = "FMSAGVSWIFFV"
answer_label = -1


----------
Entries and their protein stability index values follow.
# Test system: Saccharomyces cerevisiae
# ASSAY METHOD TEXT: protein stability index of tFT-peptide fusion (C-terminal peptide) (PSI (0-1 scale)); higher = more stable (slower turnover)
# STATED CONDITIONS: genetic background: wild type; temperature: 30 C
VALUE KIND: protein stability index

[[record]]
residue_sequence = "VTPPTPPSRASP"
value_kind = "protein stability index"
observed_result = 0.667

[[record]]
residue_sequence = "AGWPWAGRSCWG"
value_kind = "protein stability index"
observed_result = 0.728

[[record]]
residue_sequence = "LDRTIPGPWPLR"
value_kind = "protein stability index"
observed_result = 0.731

[[record]]
residue_sequence = "LYDAALHTKIFR"
value_kind = "protein stability index"
observed_result = 0.634

[[record]]
residue_sequence = "TRKRIKKHSMNK"
value_kind = "protein stability index"
observed_result = 0.672

[[record]]
residue_sequence = "VGLGFVVNAPGL"
value_kind = "protein stability index"
observed_result = 0.73

[[record]]
residue_sequence = "PYSHFVFGLCEL"
value_kind = "protein stability index"
observed_result = 0.75

[[record]]
residue_sequence = "GGGWCVWMVWFG"
value_kind = "protein stability index"
observed_result = 0.401

[[record]]
residue_sequence = "SRYRPTGAHYGH"
value_kind = "protein stability index"
observed_result = 0.714

[[record]]
residue_sequence = "YCLSCLAKASLM"
value_kind = "protein stability index"
observed_result = 0.288

[[record]]
residue_sequence = "LEGGVREMRGDG"
value_kind = "protein stability index"
observed_result = 0.641

[[record]]
residue_sequence = "GYPASGVLIVFF"
value_kind = "protein stability index"
observed_result = 0.512

[[record]]
residue_sequence = "KKKKKNTKVYNE"
value_kind = "protein stability index"
observed_result = 0.703

[[record]]
residue_sequence = "VYVFGCVVGSGW"
value_kind = "protein stability index"
observed_result = 0.639

[[record]]
residue_sequence = "HRKPHRSKTPIH"
value_kind = "protein stability index"
observed_result = 0.693

[[record]]
residue_sequence = "GSVRSLARFCVF"
value_kind = "protein stability index"
observed_result = 0.499

[[record]]
residue_sequence = "RAIPTWPIGDRR"
value_kind = "protein stability index"
observed_result = 0.655

[[record]]
residue_sequence = "VLVVWLGICFGY"
value_kind = "protein stability index"
observed_result = 0.259

[[record]]
residue_sequence = "PPPRPPPLPSPV"
value_kind = "protein stability index"
observed_result = 0.616

[[record]]
residue_sequence = "SPLYCGLSLPSV"
value_kind = "protein stability index"
observed_result = 0.664

[[record]]
residue_sequence = "WIFPPLPPPLPR"
value_kind = "protein stability index"
observed_result = 0.717


----------
# Tested on: Saccharomyces cerevisiae
# ASSAY METHOD TEXT: protein stability index of tFT-peptide fusion (C-terminal peptide) (PSI (0-1 scale)); higher = more stable (slower turnover)
# STATED CONDITIONS: genetic background: wild type; temperature: 30 C
VALUE KIND: protein stability index

[[record]]
residue_sequence = "AGLLLGGRVFGW"
test_target = "Saccharomyces cerevisiae"
value_kind = "protein stability index"
observed_result = 0.708

[[record]]
residue_sequence = "PALPTPPVSPSP"
test_target = "Saccharomyces cerevisiae"
value_kind = "protein stability index"
observed_result = 0.333

[[record]]
residue_sequence = "YFWFSRGLSVFF"
test_target = "Saccharomyces cerevisiae"
value_kind = "protein stability index"
observed_result = 0.666

[[record]]
residue_sequence = "GSVFWVCGFFRV"
test_target = "Saccharomyces cerevisiae"
value_kind = "protein stability index"
observed_result = 0.559

[[record]]
residue_sequence = "IYVGAGCLGHTE"
test_target = "Saccharomyces cerevisiae"
value_kind = "protein stability index"
observed_result = 0.717

[[record]]
residue_sequence = "GVVCWRFLLADV"
test_target = "Saccharomyces cerevisiae"
value_kind = "protein stability index"
observed_result = 0.596

[[record]]
residue_sequence = "KIKNKYKEKKKK"
test_target = "Saccharomyces cerevisiae"
value_kind = "protein stability index"
observed_result = 0.67

[[record]]
residue_sequence = "RHRGVYMDRGCL"
test_target = "Saccharomyces cerevisiae"
value_kind = "protein stability index"
observed_result = 0.663

[[record]]
residue_sequence = "RIAWTKEKMGKT"
test_target = "Saccharomyces cerevisiae"
value_kind = "protein stability index"
observed_result = 0.661

[[record]]
residue_sequence = "VTTDLALCGSVC"
test_target = "Saccharomyces cerevisiae"
value_kind = "protein stability index"
observed_result = 0.624

[[record]]
residue_sequence = "GCRLFGLMFFDA"
test_target = "Saccharomyces cerevisiae"
value_kind = "protein stability index"
observed_result = 0.682

[[record]]
residue_sequence = "IAAPANQGHSKP"
test_target = "Saccharomyces cerevisiae"
value_kind = "protein stability index"
observed_result = 0.694

[[record]]
residue_sequence = "CIHMNCSMMIIS"
test_target = "Saccharomyces cerevisiae"
value_kind = "protein stability index"
observed_result = 0.135

[[record]]
residue_sequence = "QKHAAFLKRSRE"
test_target = "Saccharomyces cerevisiae"
value_kind = "protein stability index"
observed_result = 0.68

[[record]]
residue_sequence = "VPQQWFAETGRC"
test_target = "Saccharomyces cerevisiae"
value_kind = "protein stability index"
observed_result = 0.745

[[record]]
residue_sequence = "NYLPLCCSMLAG"
test_target = "Saccharomyces cerevisiae"
value_kind = "protein stability index"
observed_result = 0.588

[[record]]
residue_sequence = "VVGFVPVWRAGS"
test_target = "Saccharomyces cerevisiae"
value_kind = "protein stability index"
observed_result = 0.593

[[record]]
residue_sequence = "SEGSRGYLLEIQ"
test_target = "Saccharomyces cerevisiae"
value_kind = "protein stability index"
observed_result = 0.69

[[record]]
residue_sequence = "KEFFGGSTDFRV"
test_target = "Saccharomyces cerevisiae"
value_kind = "protein stability index"
observed_result = 0.729

[[record]]
residue_sequence = "FGGVGRGGLLWC"
test_target = "Saccharomyces cerevisiae"
value_kind = "protein stability index"
observed_result = 0.775

[[record]]
residue_sequence = "STPLLLSPPLFC"
test_target = "Saccharomyces cerevisiae"
value_kind = "protein stability index"
observed_result = 0.649

[[record]]
residue_sequence = "GCRPFLLKSQTF"
test_target = "Saccharomyces cerevisiae"
value_kind = "protein stability index"
observed_result = 0.777

[[record]]
residue_sequence = "GVAPGRSRRKRG"
test_target = "Saccharomyces cerevisiae"
value_kind = "protein stability index"
observed_result = 0.67

[[record]]
residue_sequence = "GDCYLCSACEWW"
test_target = "Saccharomyces cerevisiae"
value_kind = "protein stability index"
observed_result = 0.753

[[record]]
residue_sequence = "RYFISAHPGGIA"
test_target = "Saccharomyces cerevisiae"
value_kind = "protein stability index"
observed_result = 0.66

[[record]]
residue_sequence = "CICAFCSLNLLC"
test_target = "Saccharomyces cerevisiae"
value_kind = "protein stability index"
observed_result = 0.435

[[record]]
residue_sequence = "PLPHPPRPLPPH"
test_target = "Saccharomyces cerevisiae"
value_kind = "protein stability index"
observed_result = 0.717

[[record]]
residue_sequence = "ERARGGRGVGGN"
test_target = "Saccharomyces cerevisiae"
value_kind = "protein stability index"
observed_result = 0.678

[[record]]
residue_sequence = "PPPGCRPSPPLP"
test_target = "Saccharomyces cerevisiae"
value_kind = "protein stability index"
observed_result = 0.683

[[record]]
residue_sequence = "KNKVTRNEKGIT"
test_target = "Saccharomyces cerevisiae"
value_kind = "protein stability index"
observed_result = 0.639

[[record]]
residue_sequence = "WSWTNDAFFGVV"
test_target = "Saccharomyces cerevisiae"
value_kind = "protein stability index"
observed_result = 0.681

[[record]]
residue_sequence = "ERKDPNTNKVKS"
test_target = "Saccharomyces cerevisiae"
value_kind = "protein stability index"
observed_result = 0.678

[[record]]
residue_sequence = "ERRELSAHVYLD"
test_target = "Saccharomyces cerevisiae"
value_kind = "protein stability index"
observed_result = 0.665

[[record]]
residue_sequence = "HKRCCIPTNDSQ"
test_target = "Saccharomyces cerevisiae"
value_kind = "protein stability index"
observed_result = 0.699

